Tested on: tonic flexion-extension convulsions
Assay: Supramaximal electroshock antagonism (suppression of convulsions induced in mice by transcranal electroshock)
Format: in vivo, Male albino ICR-swiss mice
Settings: Mus musculus, oral gavage, 1 hour after administration, 60 hertz, 25 milliamps, 0.2 second, read-out: Supramaximal Electroshock Antagonism Approximate ED50
Each entry below carries its reported ED50.

Examples with their reported ED50 follow.
{"compound": "COc1cc(C(=O)NCCN(C)C)c(OC)c2ccccc12.Cl", "observed_property": "ED50", "result": "~45 mg/kg"}
{"compound": "O=C1NC(=O)C(c2ccccc2)(c2ccccc2)N1 [Dilantin, phenytoin, reference compound]", "observed_property": "ED50", "result": "~13 mg/kg"}
{"compound": "CCCC(CCC)C(=O)O [Valproic Acid, reference compound]", "observed_property": "ED50", "result": "~600 mg/kg"}

Prompt line: Form field: reported ED50 of COc1cc(C(=O)NCCCN(C)C)c(OC)c2ccccc12.Cl
Response line: ~75 mg/kg

###

Each entry below carries its reported safety ratio (LD50/ED50).
Assay: in vivo
Details: mouse, po, LD50 (24 hr., mice) divided by ED50 (supramaximal electroshock), read-out: Approximate Safety Ratio LD50/ED50

{"compound": "COc1cc(C(=O)NCCN(C)C)c(OC)c2ccccc12.Cl [hydrochloride]", "result": "~17"}

Prompt line: Form field: reported safety ratio (LD50/ED50) of COc1cc(C(=O)NCCCN(C)C)c(OC)c2ccccc12.Cl [hydrochloride]
Response line: ~10

Reference source: patent US4590063A
